test system: Escherichia coli TOP10; assay: shrunken log2 fold change of peptide-encoding DNA abundance (4.5 h post-induction vs induction); higher = less antimicrobial activity (less host growth inhibition); details: time post-induction: 4.5 h; library: site-saturation at positions 5, 18, 19, 20;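 note: peptides expressed intracellularly from a pBAD plasmid library in pooled LB shake-flask culture, induced with 0.3% L-arabinose, DNA abundance read by NGS, three biological replicates, DESeq2 with apeglm shrinkage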
Record Yes whenever shrunken log2 fold change is at 0.02 or higher; record No when lower.

- Sequence text: "RRIRMRPPRLPRPRPRPNQDPRP"
  Label class: "No"
- Sequence text: "RRIRIRPPRLPRPRPRPVYDPRP"
  Label class: "No"
- Sequence text: "RRIRTRPPRLPRPRPRPRVPPRP"
  Label class: "Yes"
- Sequence text: "RRIRWRPPRLPRPRPRPHFEPRP"
  Label class: "No"
- Sequence text: "RRIRSRPPRLPRPRPRPTWTPRP"
  Label class: "Yes"
- Sequence text: "RRIRDRPPRLPRPRPRPEANPRP"
  Label class: "Yes"
- Sequence text: "RRIRVRPPRLPRPRPRPDRDPRP"
  Label class: "Yes"
- Sequence text: "RRIRPRPPRLPRPRPRPTKTPRP"
  Label class: "Yes"
- Sequence text: "RRIRWRPPRLPRPRPRPHSFPRP"
  Label class: "No"
- Sequence text: "RRIRNRPPRLPRPRPRPQRAPRP"
  Label class: "Yes"
- Sequence text: "RRIRVRPPRLPRPRPRPEKAPRP"
  Label class: "No"
- Sequence text: "RRIRFRPPRLPRPRPRPNIWPRP"
  Label class: "No"
- Sequence text: "RRIRSRPPRLPRPRPRPHYWPRP"
  Label class: "No"
- Sequence text: "RRIRRRPPRLPRPRPRPNTRPRP"
  Label class: "Yes"
- Sequence text: "RRIRSRPPRLPRPRPRPMPVPRP"
  Label class: "Yes"
